The measured values listed here are drawn from patent US11365410B2.

Target: TetR, regulator sequence SEQ ID NO: 13 (Escherichia coli)
Construct: expressed in transfected cells; host or cells: E. coli DH5alpha transformed with pJKR-H (high copy) or pJKR-L (low copy) plasmid
Sequence (P04483 whole entry): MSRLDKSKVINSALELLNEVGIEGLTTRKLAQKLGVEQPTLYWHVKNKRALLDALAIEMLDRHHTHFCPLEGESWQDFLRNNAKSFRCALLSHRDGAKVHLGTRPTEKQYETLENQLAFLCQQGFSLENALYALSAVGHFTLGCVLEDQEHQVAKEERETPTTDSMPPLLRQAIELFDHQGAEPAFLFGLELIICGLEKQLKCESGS
Experiment: cell-based
Assay type: cell-based
Details: anhydrotetracycline; low copy; lumped half-maximal parameter from Hill fit
readout: EC50
Put down the number, then write its unit next to it.

Problem: What value of EC50 has been reported for the following compound? Cc1c2c(c(O)c3c(O)cccc13)C(=O)[C@]1(O)C(=O)C(C(N)=O)=C(O)[C@@H](N(C)C)[C@@H]1C2 [Anhydrotetracycline, anhydrotetracycline]
Solution: 54 nM
